Data origin: ChEMBL document CHEMBL1147500

- procedure.summary: Tmax value at a dose of 50 mg/kg in male SD rats
- Format: ADME, organism-based
- Design: dose 50 mg/kg
- assay.conditions: rat, in vivo
metric: Tmax (h)
Kindly answer with a numeric value in h, unit omitted.

Prompt: Find the recorded Tmax belonging to CC1(C)OC(c2ccc(S(C)(=O)=O)cc2)=C(c2cc(F)cc(F)c2)C1=O and report it.
Response: 4.3

----------
- target.or.system: Prostaglandin G/H synthase 1 (Mus musculus)
- Sequence (P22437 whole entry): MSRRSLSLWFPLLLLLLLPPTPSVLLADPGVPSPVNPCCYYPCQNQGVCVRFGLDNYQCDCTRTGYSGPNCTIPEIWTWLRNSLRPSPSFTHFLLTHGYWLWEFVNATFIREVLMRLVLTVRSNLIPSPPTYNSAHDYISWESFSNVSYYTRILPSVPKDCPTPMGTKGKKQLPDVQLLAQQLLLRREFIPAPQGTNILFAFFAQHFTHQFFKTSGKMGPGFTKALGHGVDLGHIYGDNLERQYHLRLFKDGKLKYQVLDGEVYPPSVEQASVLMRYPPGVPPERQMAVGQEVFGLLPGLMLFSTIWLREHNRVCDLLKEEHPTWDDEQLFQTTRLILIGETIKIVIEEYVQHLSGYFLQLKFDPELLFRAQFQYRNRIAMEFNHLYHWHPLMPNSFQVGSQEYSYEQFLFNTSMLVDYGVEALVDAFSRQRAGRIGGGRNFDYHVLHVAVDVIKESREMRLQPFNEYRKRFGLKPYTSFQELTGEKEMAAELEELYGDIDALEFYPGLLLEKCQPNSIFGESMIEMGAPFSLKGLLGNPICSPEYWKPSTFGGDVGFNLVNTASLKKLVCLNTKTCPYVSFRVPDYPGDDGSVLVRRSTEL
- procedure.summary: Inhibitory concentration against prostaglandin G/H synthase 1 in mouse peritoneal macrophages
metric: IC50 (µM)
Number only, in µM; omit the unit.

Prompt: Recorded IC50 for CC1(C)OC(c2ccc(S(C)(=O)=O)cc2)=C(c2cc(F)cc(F)c2)C1=O , please?
Response: 13.2

----------
- procedure.summary: Area under curve (0-24 hr) at a dose of 50 mg/kg in male SD rats
- Assay type: ADME, organism-based
- Set-up: time < 24 hr, dose 50 mg/kg
- assay.conditions: rat, in vivo
metric: AUC(0-t) at 24 h (µg·h/mL)
All answers are understood in µg·h/mL, so give the number only.

Prompt: Could you share which AUC(0-t) at 24 h value was measured for CC1(C)OC(c2ccc(S(C)(=O)=O)cc2)=C(c2cc(F)cc(F)c2)C1=O ?
Response: 359

----------
The compounds listed here are annotated with their Tmax.
- procedure.summary: Tmax value at a dose of 10 mg/kg in male SD rats
- Type: ADME, organism-based
- Parameters: dose 10 mg/kg
- assay.conditions: rat, in vivo
Write it as a number; the unit h goes unstated.

As a guide, the following entries are already answered.
Prompt: Give the measured Tmax of C[S+]([O-])c1ccc(C2=C(c3cccc(Cl)c3)C(=O)C(C)(C)O2)cc1 (stereo not drawn) .
Response: 0.5

Prompt: // repeat for CC1(C)OC(c2ccc(S(C)(=O)=O)cc2)=C(c2cc(F)cc(F)c2)C1=O and report
Response: 2

Attention now turns to another entry.
Prompt: Field request: Tmax | item: CC1(C)OC(c2ccc(S(C)(=O)=O)cc2)=C(c2cccc(Cl)c2)C1=O
Response: 1.5

----------
- procedure.summary: Cmax value at a dose of 100 mg/kg in male SD rats
- Type: ADME, organism-based
- Set-up: dose 100 mg/kg
- assay.conditions: rat, in vivo
metric: Cmax (µg/mL)
Just the number please, in µg/mL, no unit attached.

Prompt: Would you mind telling me what Cmax value was observed for CC1(C)OC(c2ccc(S(C)(=O)=O)cc2)=C(c2cc(F)cc(F)c2)C1=O ?
Response: 24.9

----------
In this section we review reported AUC(0-t) at 24 h values for a set of compounds.
- procedure.summary: Area under curve (0-24 hr) at a dose of 10 mg/kg in male SD rats
- Type: ADME, organism-based
- Parameters: time < 24 hr, dose 10 mg/kg
- assay.conditions: rat, in vivo
Give a bare numeral; the unit ng·h/mL is implied.

Prompt: What value of AUC(0-t) at 24 h has been recorded for this entry: CC1(C)OC(c2ccc(S(C)(=O)=O)cc2)=C(c2cc(F)cc(F)c2)C1=O
Response: 23100

Prompt: Request: C[S+]([O-])c1ccc(C2=C(c3cccc(Cl)c3)C(=O)C(C)(C)O2)cc1 (stereo not drawn)
Response: 3610

Turning now to a further compound:
Prompt: Give its AUC(0-t) at 24 h value. Item: CC1(C)OC(c2ccc(S(C)(=O)=O)cc2)=C(c2cccc(Cl)c2)C1=O
Response: 12700

----------
- procedure.summary: Cmax value at a dose of 50 mg/kg in male SD rats
- Format: ADME, organism-based
- Parameters: dose 50 mg/kg
- assay.conditions: rat, in vivo
metric: Cmax (ng/mL)
All answers are understood in ng/mL, so give the number only.

Prompt: Tell me the measured Cmax of CC1(C)OC(c2ccc(S(C)(=O)=O)cc2)=C(c2cc(F)cc(F)c2)C1=O , please.
Response: 11700

----------
- procedure.summary: Cmax upon oral administration in male Beagle dog at 10 mg/kg
- Type: ADME, organism-based, Canis lupus familiaris
- Set-up: dose 10 mg/kg, route oral
- assay.conditions: in vivo
metric: Cmax (ng/mL)
Please respond with the number in ng/mL and leave the unit unwritten.

Prompt: Consider the compound CC1(C)OC(c2ccc(S(C)(=O)=O)cc2)=C(c2cc(F)cc(F)c2)C1=O and give its measured Cmax.
Response: 130

----------
- procedure.summary: Tmax value at a dose of 100 mg/kg in male SD rats
- Assay type: ADME, organism-based
- Set-up: dose 100 mg/kg
- assay.conditions: rat, in vivo
metric: Tmax (h)
Note: unit h is implicit; provide only the numeric part.

Prompt: What Tmax value was documented for this compound, CC1(C)OC(c2ccc(S(C)(=O)=O)cc2)=C(c2cc(F)cc(F)c2)C1=O ?
Response: 5

----------
Cmax overview
- procedure.summary: Cmax value at a dose of 10 mg/kg in male SD rats
- Assay type: ADME, organism-based
- Set-up: dose 10 mg/kg
- assay.conditions: rat, in vivo
Quick note: give the figure in ng/mL, leave out the unit.

Below, 2 compounds whose answers are already recorded.
Prompt: # get_value(readout='Cmax', item= CC1(C)OC(c2ccc(S(C)(=O)=O)cc2)=C(c2cccc(Cl)c2)C1=O )
Response: 1390

Prompt: Same question for CC1(C)OC(c2ccc(S(C)(=O)=O)cc2)=C(c2cc(F)cc(F)c2)C1=O please.
Response: 2580

Now for another entry.
Prompt: Which Cmax value is on record for C[S+]([O-])c1ccc(C2=C(c3cccc(Cl)c3)C(=O)C(C)(C)O2)cc1 (stereo not drawn) ?
Response: 460
